Tested on: Hep G2 cell line
Experiment: solid tumor cell growth inhibition, MTT
Assay type: cell-based, human
Details: Homo sapiens, HepG2, 72 h, Hep G2, 16 μg/mL compound, 72 h; read-out: IR (cell proliferation inhibition rate)
Listing of recorded inhibition at 16 µg/mL by entry.
The reply should be a number in %, with the unit left off.

Example entries and their recorded answers appear below.
CC1(C)CC[C@]2(C(=O)O)CC[C@]3(C)C(=CC[C@@H]4[C@@]5(C)CC[C@H](O)C(C)(C)[C@@H]5CC[C@]43C)[C@@H]2C1; -18.5
COC(=O)[C@]12CCC(C)(C)CC1C1=CCC3[C@@]4(C)CC(C(=O)NCCCN5CCOCC5)C(=O)C(C)(C)C4CC[C@@]3(C)[C@]1(C)CC2 (stereo partly drawn); 95.7
COC(=O)[C@]12CCC(C)(C)C[C@H]1C1=CC[C@@H]3[C@@]4(C)CC(C(=O)NCC5CC5)C(=O)C(C)(C)[C@@H]4CC[C@@]3(C)[C@]1(C)CC2 (stereo partly drawn); 7.4

Kindly consider the entry below.
Exercise: What does the record list as inhibition at 16 µg/mL for CCN(CC)CCCNC(=O)C1C[C@@]2(C)C(CC[C@]3(C)C2CC=C2C4CC(C)(C)CC[C@]4(C(=O)O)CC[C@]23C)C(C)(C)C1=O (stereo partly drawn) ?
Solution: 42.3
